Molecular target: Beta-secretase 1 (Homo sapiens)
Sequence (P56817 whole entry): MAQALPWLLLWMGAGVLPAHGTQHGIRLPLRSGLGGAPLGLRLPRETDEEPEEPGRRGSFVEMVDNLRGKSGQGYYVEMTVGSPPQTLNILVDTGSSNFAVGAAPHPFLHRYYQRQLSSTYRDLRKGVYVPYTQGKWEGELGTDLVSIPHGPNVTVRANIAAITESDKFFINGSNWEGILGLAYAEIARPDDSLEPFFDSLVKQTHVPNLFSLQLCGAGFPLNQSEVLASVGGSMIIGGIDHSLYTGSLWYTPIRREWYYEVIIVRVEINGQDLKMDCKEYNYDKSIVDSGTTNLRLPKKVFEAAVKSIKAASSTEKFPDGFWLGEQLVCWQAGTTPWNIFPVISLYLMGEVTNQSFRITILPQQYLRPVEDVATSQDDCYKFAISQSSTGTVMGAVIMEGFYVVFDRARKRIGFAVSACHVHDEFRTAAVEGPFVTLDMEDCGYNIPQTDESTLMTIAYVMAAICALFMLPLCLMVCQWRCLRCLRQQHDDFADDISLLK
Metric Name: IC50 (µM)
Give just the numeric value; µM need not be written.

Known IC50 results, listed for orientation:
Compound | Target Or Test System | Reading Unit | IC50
CC(C)(C)CNC[C@@H](O)[C@H](Cc1ccccc1)NC(=O)CC(c1ccccc1)c1ccccc1 | Beta-secretase 1 (Homo sapiens) | µM | 33.6
O=C(CC(c1ccccc1)c1ccccc1)N[C@@H](Cc1ccccc1)[C@@H](O)CNCc1ccccc1 | Beta-secretase 1 (Homo sapiens) | µM | 17.4
O=C(CC(c1ccccc1)c1ccccc1)N[C@@H](Cc1ccccc1)[C@@H](O)CNCc1cccc(C(F)(F)F)c1 | Beta-secretase 1 (Homo sapiens) | µM | 8.3

Pending compound:
Challenge: Bench note: what IC50 did CC(C)(C)c1ccc(CNCC(O)[C@H](Cc2ccccc2)NC(=O)CC(c2ccccc2)c2ccccc2)cc1 (single isomer, unassigned) show?
Response given: 6.2

###

Target: Sodium- and chloride-dependent GABA transporter 1 (Mus musculus) (UniProt P31648)
Test: Inhibition of NO711 binding to mouse GAT1 expressed in HEK cell membranes at 100 uM incubated for 40 mins in presence of NO711 by LC-ESI-MS/MS analysis relative to control
Details: Membrane
Reported inhibition values for the following compounds.
Express the result in % but write the number alone.

Example compounds with recorded inhibition:
Smiles | Target Or Test System | Metric Name | Reported Result
C[C@H](NC[C@@H](O)[C@H](Cc1ccccc1)NC(=O)C(c1ccccc1)c1ccccc1)c1ccccc1 | Sodium- and chloride-dependent GABA transporter 1 (Mus musculus) (UniProt P31648) | inhibition | 81
COc1cccc(CNC[C@@H](O)[C@H](Cc2ccccc2)NC(=O)C(c2ccccc2)c2ccccc2)c1 | Sodium- and chloride-dependent GABA transporter 1 (Mus musculus) (UniProt P31648) | inhibition | 85
CC(C)(C)CNC[C@@H](O)[C@H](Cc1ccccc1)NC(=O)C(c1ccccc1)c1ccccc1 | Sodium- and chloride-dependent GABA transporter 1 (Mus musculus) (UniProt P31648) | inhibition | 71
COc1cccc(CNC[C@@H](O)[C@H](Cc2ccccc2)NC(=O)CC(c2ccccc2)c2ccccc2)c1 | Sodium- and chloride-dependent GABA transporter 1 (Mus musculus) (UniProt P31648) | inhibition | 65
CC(C)(C)c1cccc(CNC[C@@H](O)[C@H](Cc2ccccc2)NC(=O)C(c2ccccc2)c2ccccc2)c1 | Sodium- and chloride-dependent GABA transporter 1 (Mus musculus) (UniProt P31648) | inhibition | 82
O=C(CC(c1ccccc1)c1ccccc1)N[C@@H](Cc1ccccc1)[C@H](O)CNCC1CC1 | Sodium- and chloride-dependent GABA transporter 1 (Mus musculus) (UniProt P31648) | inhibition | 83
O=C(N[C@@H](Cc1ccccc1)[C@H](O)CNCC(F)(F)F)C(c1ccccc1)c1ccccc1 | Sodium- and chloride-dependent GABA transporter 1 (Mus musculus) (UniProt P31648) | inhibition | 100
C[C@H](NC[C@@H](O)[C@H](Cc1ccccc1)NC(=O)CC(c1ccccc1)c1ccccc1)c1ccccc1 | Sodium- and chloride-dependent GABA transporter 1 (Mus musculus) (UniProt P31648) | inhibition | 66
O=C(N[C@@H](Cc1ccccc1)[C@H](O)CNCC1CC1)C(c1ccccc1)c1ccccc1 | Sodium- and chloride-dependent GABA transporter 1 (Mus musculus) (UniProt P31648) | inhibition | 74
COc1ccccc1CNC[C@H](O)[C@H](Cc1ccccc1)NC(=O)C(c1ccccc1)c1ccccc1 | Sodium- and chloride-dependent GABA transporter 1 (Mus musculus) (UniProt P31648) | inhibition | 80

Challenge: Give the measured inhibition of O=C(CC(c1ccccc1)c1ccccc1)N[C@@H](Cc1ccccc1)[C@@H](O)CNCc1ccccc1 .
Response given: 83

Challenge: // next record O=C(N[C@@H](Cc1ccccc1)[C@@H](O)CNCc1ccccc1)C(c1ccccc1)c1ccccc1
Response given: 74

###

Documented IC50 across a set of compounds
Target: GABA transporter 4 (Mus musculus)
Sequence (P31650 whole entry): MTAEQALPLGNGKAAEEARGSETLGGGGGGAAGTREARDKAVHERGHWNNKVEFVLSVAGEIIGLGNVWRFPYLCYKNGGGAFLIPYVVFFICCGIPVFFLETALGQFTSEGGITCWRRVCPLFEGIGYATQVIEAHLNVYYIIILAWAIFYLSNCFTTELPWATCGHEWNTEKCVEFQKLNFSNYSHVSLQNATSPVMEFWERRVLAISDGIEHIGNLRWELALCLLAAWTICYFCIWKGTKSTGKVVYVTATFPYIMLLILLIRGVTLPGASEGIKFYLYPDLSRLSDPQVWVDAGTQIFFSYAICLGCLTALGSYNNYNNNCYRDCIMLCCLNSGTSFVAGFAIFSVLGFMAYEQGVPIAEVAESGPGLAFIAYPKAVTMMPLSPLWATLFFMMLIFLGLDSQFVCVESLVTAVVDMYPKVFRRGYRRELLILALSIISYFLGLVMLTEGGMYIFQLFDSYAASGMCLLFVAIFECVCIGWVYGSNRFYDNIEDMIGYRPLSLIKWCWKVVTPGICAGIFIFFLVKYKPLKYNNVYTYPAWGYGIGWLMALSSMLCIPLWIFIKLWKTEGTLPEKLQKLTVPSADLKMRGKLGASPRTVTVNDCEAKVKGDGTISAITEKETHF
Assay: Inhibition of mouse GAT4 expressed in HEK293 cell line assessed as reduction in [3H]GABA uptake incubated for 10 mins
Note: state the figure and append the unit.

Challenge: Enter reported IC50 observed with GABA transporter 4 (Mus musculus) for COc1cccc(CNC[C@@H](O)[C@H](Cc2ccccc2)NC(=O)CC(c2ccccc2)c2ccccc2)c1
Response given: 5.89 µM

Challenge: Next: COc1cccc(CNC[C@@H](O)[C@H](Cc2ccccc2)NC(=O)C(c2ccccc2)c2ccccc2)c1
Response given: 33.1 µM

###

Target: GABA transporter 4 (Mus musculus)
Assay: Inhibition of mouse GAT3 expressed in HEK293 cell line assessed as reduction in [3H]GABA uptake at 100 uM incubated for 10 mins relative to control
Format: cell-based
Metric Name: inhibition (%)
# number only, unit % dropped from output

Challenge: Quick one: inhibition of O=C(N[C@@H](Cc1ccccc1)[C@H](O)CNCC1CC1)C(c1ccccc1)c1ccccc1 ?
Response given: 54

Challenge: Same read-out for COc1cccc(CNC[C@@H](O)[C@H](Cc2ccccc2)NC(=O)C(c2ccccc2)c2ccccc2)c1 ?
Response given: 67

Challenge: Then CC(C)(C)CNC[C@@H](O)[C@H](Cc1ccccc1)NC(=O)C(c1ccccc1)c1ccccc1 ?
Response given: 54

###

Molecular target: GABA transporter 3 (Mus musculus) (UniProt P31649)
Sequence (P31649 whole entry): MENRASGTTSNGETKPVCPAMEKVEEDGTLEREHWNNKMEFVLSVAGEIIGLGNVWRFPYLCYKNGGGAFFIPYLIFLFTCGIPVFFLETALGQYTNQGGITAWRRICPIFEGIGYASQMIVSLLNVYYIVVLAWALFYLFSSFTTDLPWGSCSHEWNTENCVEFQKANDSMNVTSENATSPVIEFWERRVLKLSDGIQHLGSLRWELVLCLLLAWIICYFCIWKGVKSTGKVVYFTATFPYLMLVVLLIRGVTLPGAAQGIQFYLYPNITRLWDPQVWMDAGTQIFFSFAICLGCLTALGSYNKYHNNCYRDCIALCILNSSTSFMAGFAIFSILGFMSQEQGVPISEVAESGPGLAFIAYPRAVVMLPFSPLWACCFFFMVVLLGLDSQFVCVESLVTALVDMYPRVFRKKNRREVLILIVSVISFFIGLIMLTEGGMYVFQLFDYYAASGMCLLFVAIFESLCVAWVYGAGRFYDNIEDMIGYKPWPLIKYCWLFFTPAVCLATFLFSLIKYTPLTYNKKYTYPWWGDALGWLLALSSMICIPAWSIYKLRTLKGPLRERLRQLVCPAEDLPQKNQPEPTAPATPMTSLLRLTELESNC
Assay: Inhibition of mouse GAT2 expressed in HEK293 cell line assessed as reduction in [3H]GABA uptake at 100 uM incubated for 10 mins relative to control
Assay type: cell-based
Kind request: treat 70% as inclusive, so inhibition at 70% or higher is T, anything lower is F.

Challenge: Reported inhibition at or above 70%? O=C(CC(c1ccccc1)c1ccccc1)N[C@@H](Cc1ccccc1)[C@H](O)CNCC1CC1
Response given: F

Challenge: Same thing, different compound: C[C@H](NC[C@@H](O)[C@H](Cc1ccccc1)NC(=O)CC(c1ccccc1)c1ccccc1)c1ccccc1
Response given: F

Challenge: // query: COc1cccc(CNC[C@@H](O)[C@H](Cc2ccccc2)NC(=O)C(c2ccccc2)c2ccccc2)c1
Response given: F

Challenge: Please answer likewise for O=C(CC(c1ccccc1)c1ccccc1)N[C@@H](Cc1ccccc1)[C@@H](O)CNCc1ccccc1
Response given: T

Challenge: Query O=C(N[C@@H](Cc1ccccc1)[C@H](O)CNCC1CC1)C(c1ccccc1)c1ccccc1 next
Response given: T

Challenge: Also check O=C(N[C@@H](Cc1ccccc1)[C@H](O)CNCC(F)(F)F)C(c1ccccc1)c1ccccc1
Response given: T

###

Assay: Neurotoxicity against mouse HT22 cells assessed as cell viability at 10 uM incubated for 24 hrs by MTT assay
Format: cell-based, HT-22
Conditions: ht-22, 24 h, 10 µM
Metric Name: Activity

Compound | Reported Result
O[C@@H](CNCc1ccccc1)[C@H](Cc1ccccc1)NCCC(c1ccccc1)c1ccccc1 | Toxic
CC(C)(C)c1ccc(CNCC(O)[C@H](Cc2ccccc2)NC(=O)CC(c2ccccc2)c2ccccc2)cc1 (single isomer, unassigned) | Non-Toxic
CC(C)(C)c1cccc(CNC[C@@H](O)[C@H](Cc2ccccc2)NC(=O)C(c2ccccc2)c2ccccc2)c1 | Non-Toxic
CC(C)(C)CNC[C@@H](O)[C@H](Cc1ccccc1)NC(=O)C(c1ccccc1)c1ccccc1 | Non-Toxic

###

Molecular target: Cholinesterase (Equus caballus)
Experiment: Inhibition of equine serum BuChE at 10 uM using butyrylthiocholine as substrate preincubated for 5 mins followed by substrate addition and measured after 5 mins by Ellman's method relative to control
Conditions: time 10.0 min
This listing pairs compounds with measured inhibition.
Give your result in % as a bare value.

Smiles | Reading Unit | Reported Result
O=C(CC(c1ccccc1)c1ccccc1)N[C@@H](Cc1ccccc1)[C@H](O)CNCC(F)(F)F | % | 19.2

Challenge: Find inhibition (Cholinesterase (Equus caballus)) for the entry O=C(N[C@@H](Cc1ccccc1)[C@H](O)CNCC(F)(F)F)C(c1ccccc1)c1ccccc1
Response given: 26.3

Challenge: CC(C)(NC[C@@H](O)[C@H](Cc1ccccc1)NC(=O)C(c1ccccc1)c1ccccc1)c1ccccc1 , same question.
Response given: 45.9

Challenge: Another compound to check: O=C(CC(c1ccccc1)c1ccccc1)N[C@@H](Cc1ccccc1)[C@@H](O)CNCc1cccc(C(F)(F)F)c1
Response given: 29.5

The measured values listed here are drawn from ChEMBL document CHEMBL4819069.
